meta.source: patent US10995091B2

// values below are reported pKi
# target of assay: Human CXCR4 transfected HEK293 cells (Homo sapiens, UniProt P61073)
# Sequence (P61073 whole entry): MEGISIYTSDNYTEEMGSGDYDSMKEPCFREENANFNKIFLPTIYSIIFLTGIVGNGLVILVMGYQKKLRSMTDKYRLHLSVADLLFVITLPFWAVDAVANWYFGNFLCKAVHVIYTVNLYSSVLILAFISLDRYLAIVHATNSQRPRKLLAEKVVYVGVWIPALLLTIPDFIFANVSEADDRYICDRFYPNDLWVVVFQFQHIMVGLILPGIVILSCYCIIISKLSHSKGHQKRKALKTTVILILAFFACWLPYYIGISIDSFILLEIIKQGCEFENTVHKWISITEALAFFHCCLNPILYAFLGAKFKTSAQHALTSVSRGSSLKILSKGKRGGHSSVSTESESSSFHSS
# assay protocol: CXCR4 functional calcium assay (calcium flux FLIPR, antagonism of SDF1 response)
# particulars: CXCR4 functional activity, antagonism of SDF1 (EC50 concentration), read-out: CXCR4 fKi
pKi: −log10 of the molar value.
experimental readout: pKi

[[record]]
compound = "CC(C)N1CCC(N2CCCN(c3cccc(-c4nnc(C5CC5)o4)n3)CC2)CC1 [Example 172]"
value_reported = "6.30 to 7.00"

[[record]]
compound = "CCCCNC(=O)c1cccc(N2CCCN(C3CCN([C@@H](C)C(F)(F)F)CC3)CC2)n1 [Example 93]"
value_reported = "7.00 to 7.70"

[[record]]
compound = "CC(C)N1CCC(N2CCCN(c3cccc(C(=O)NCCO)n3)CC2)CC1 [Example 12]"
value_reported = "6.30 to 7.00"

[[record]]
compound = "CC(C)(N1CCC(N2CCCN(c3cccc(C(=O)NCc4cccnc4)n3)CC2)CC1)C(F)(F)F [Example 91]"
value_reported = "6.30 to 7.00"

[[record]]
compound = "CCCN1CCC(N2CCCN(c3cccc(C(=O)NCC4CC4)n3)CC2)CC1 [Example 61]"
value_reported = "6.30 to 7.00"

